# Experimental target: rabbit duodenal smooth muscle strip (Oryctolagus cuniculus)
# Sequence (G1T803 1-400): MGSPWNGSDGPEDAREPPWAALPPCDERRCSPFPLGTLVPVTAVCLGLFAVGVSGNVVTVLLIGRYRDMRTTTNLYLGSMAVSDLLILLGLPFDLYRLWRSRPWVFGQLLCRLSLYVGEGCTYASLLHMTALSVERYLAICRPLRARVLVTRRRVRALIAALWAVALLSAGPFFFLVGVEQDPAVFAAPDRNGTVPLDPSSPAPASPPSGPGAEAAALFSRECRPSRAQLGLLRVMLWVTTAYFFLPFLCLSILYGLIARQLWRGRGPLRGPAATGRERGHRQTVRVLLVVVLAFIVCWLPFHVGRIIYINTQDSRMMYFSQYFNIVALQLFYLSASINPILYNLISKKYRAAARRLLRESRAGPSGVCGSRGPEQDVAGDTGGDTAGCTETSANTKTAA
# Method description: Rabbit duodenal smooth muscle strip tissue bath assay (contractility)
# Format: cell-based
# Applied conditions: negative logarithm of dose giving 50% of maximal response to motilin; isotonic contraction of rabbit duodenum segments
Positions of bridges follow the written chain, without caps; N, C: chain ends. Non-standard residues stand in square brackets, D forms with d. Residues, ends and D or L forms follow the SMILES beside them. *: point of attachment. X1 = C[N+](C)(C)[C@@H](Cc1ccccc1)C(=O)*; NMeF = CN[C@@H](Cc1ccccc1)C(=O)O
I'd appreciate it if you could supply pEC50 values for the items below.
When you answer, write just the number.

Reported pEC50 for CC[C@H](C)[C@H](NC(=O)[C@@H]1CCCN1C(=O)[C@@H](NC(=O)[C@H](Cc1ccccc1)NC)C(C)C)C(=O)N[C@@H](Cc1ccccc1)C(=O)N[C@H](C(=O)N[C@@H](Cc1ccc(O)cc1)C(=O)NCC(=O)N[C@@H](CCC(=O)O)C(=O)N[C@H]1CCC(=O)NCCCC[C@@H](C(N)=O)NC(=O)[C@H](CC(C)C)NC(=O)[C@H](CCCNC(=N)N)NC(=O)[C@H](CCC(N)=O)NC1=O)[C@@H](C)O [SEQ ID NO:22] (H-[NMeF]VPIFTYGEEQRLK-NH2; lactam 10-14) was 8.73

Reported pEC50 for CC[C@H](C)[C@H](NC(=O)[C@@H]1CCCN1C(=O)[C@@H](NC(=O)[C@H](Cc1ccccc1)[N+](C)(C)C)C(C)C)C(=O)N[C@@H](Cc1ccccc1)C(=O)N[C@H](C(=O)N[C@@H](Cc1ccc(O)cc1)C(=O)NCC(=O)N[C@@H](CCC(=O)O)C(=O)N[C@H]1CC(=O)NCCCC[C@@H](C(N)=O)NC(=O)[C@H](CC(C)C)NC(=O)[C@@H](CCCNC(=N)N)NC(=O)[C@H](C)NC1=O)[C@@H](C)O [SEQ ID NO:24] (X1-VPIFTYGEDA[dR]LK-NH2; lactam 9-13) was 7.02

Reported pEC50 for CC[C@H](C)[C@H](NC(=O)[C@@H]1CCCN1C(=O)[C@@H](NC(=O)[C@H](Cc1ccccc1)NC)C(C)C)C(=O)N[C@@H](Cc1ccccc1)C(=O)N[C@H](C(=O)N[C@@H](Cc1ccc(O)cc1)C(=O)NCC(=O)N[C@@H](CCC(=O)O)C(=O)N[C@H]1CCC(=O)NCCCC[C@@H](C(=O)N[C@@H](CCCCN)C(N)=O)NC(=O)[C@H](CC(C)C)NC(=O)[C@@H](CCCNC(=N)N)NC(=O)[C@H](C)NC1=O)[C@@H](C)O [SEQ ID NO:15] (H-[NMeF]VPIFTYGEEA[dR]LKK-NH2; lactam 10-14) was 7.68

Reported pEC50 for CC[C@H](C)[C@H](NC(=O)[C@@H]1CCCN1C(=O)[C@@H](NC(=O)[C@H](Cc1ccccc1)[N+](C)(C)C)C(C)C)C(=O)N[C@@H](Cc1ccccc1)C(=O)N[C@H](C(=O)N[C@@H](Cc1ccc(O)cc1)C(=O)NCC(=O)N[C@@H](CCC(=O)O)C(=O)N[C@H]1CC(=O)NCCCC[C@@H](C(=O)N[C@@H](CCCCN)C(N)=O)NC(=O)[C@H](CC(C)C)NC(=O)[C@H](CCCNC(=N)N)NC(=O)[C@H](C)NC1=O)[C@@H](C)O [SEQ ID NO:18] (X1-VPIFTYGEDARLKK-NH2; lactam 9-13) was 7.72
